molecular target: talin 1 R7R8 domain protein (mouse) (mouse); assay: fluorescence polarisation; competition: R7R8 (30 μM) pre-incubated with DLC1 TBS-F (1 μM) 20 min at room temperature, diluted 1:2 into unlabeled peptide at twofold increasing concentrations up to 160 μM; one-site Ki fit
assayMetric: Ki (µM)
The figure you give is taken to be in µM; do not add the unit.

Ask: Ki for SEDIDQMFSTLLGEMDLLTQSLGVDTC [RIAM TBS1 (4-30C) synthetic peptide, unlabeled] ?
Result: 90
